Target: Calcitonin gene-related peptide type 1 receptor (Homo sapiens, UniProt Q16602)
Sequence (Q16602 whole entry): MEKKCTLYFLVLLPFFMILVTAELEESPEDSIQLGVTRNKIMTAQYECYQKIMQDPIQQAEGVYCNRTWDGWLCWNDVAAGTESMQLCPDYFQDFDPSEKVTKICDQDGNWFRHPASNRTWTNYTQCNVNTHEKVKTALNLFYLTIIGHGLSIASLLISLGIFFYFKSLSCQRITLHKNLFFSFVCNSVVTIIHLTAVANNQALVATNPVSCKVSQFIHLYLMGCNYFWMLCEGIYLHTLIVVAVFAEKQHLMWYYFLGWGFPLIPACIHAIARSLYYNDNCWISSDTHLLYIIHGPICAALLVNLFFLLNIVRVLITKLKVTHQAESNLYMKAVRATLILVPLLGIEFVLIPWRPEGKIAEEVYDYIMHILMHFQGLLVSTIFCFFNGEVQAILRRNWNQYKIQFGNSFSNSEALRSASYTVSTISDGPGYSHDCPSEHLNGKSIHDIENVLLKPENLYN
Test: Inhibition of CGRP-induced cAMP production in E10 cells
experimental.endpoint: IC50 (nM)

Request: What value of IC50 has been recorded for this entry: `COc1cccc(-n2c(=O)n(CC(=O)Nc3ccc4c(c3)C[C@]3(C4)C(=O)NC(=O)N3C)c3ccccc32)n1`
Result: 54

1: CN1C(=O)NC(=O)[C@]12Cc1ccc(NC(=O)Cn3c(=O)n(-c4nccs4)c4ccccc43)cc1C2
2: O=C(Cn1c(=O)oc2ccccc21)Nc1ccc2c(c1)CCC1(C2)NC(=O)NC1=O (configuration not stated)
3: CN1C(=O)NC(=O)C12Cc1ccc(NC(=O)Cn3c(=O)oc4ccccc43)cc1C2 (configuration not stated)
Request: Reorder: IC50, max to min. Your answer should be the labels, listed in the requested order.
Result: 2, 3, 1

I: CN1C(=O)NC(=O)[C@]12Cc1ccc(NC(=O)Cn3c(=O)n(C4CCS(=O)(=O)C4)c4ccccc43)cc1C2 (some centres not stated)
II: CN1C(=O)NC(=O)[C@]12Cc1ccc(NC(=O)Cn3c(=O)oc4ccccc43)cc1C2
Request: Pick one: I or II . Which one has the lower reported IC50? Choose, then provide that item's label.
Result: I
(I: 64 nM, II: 350 nM)

I: CN1C(=O)NC(=O)[C@]12Cc1ccc(NC(=O)Cn3c(=O)n(-c4cnccn4)c4ccccc43)cc1C2
II: O=C(Cn1c(=O)[nH]c2ccccc21)Nc1ccc2c(c1)CC1(C2)NC(=O)NC1=O (configuration not stated)
III: O=C(Cn1c(=O)oc2ccccc21)Nc1ccc2c(c1)CC1(C2)NC(=O)NC1=O (configuration not stated)
IV: CN1C(=O)NC(=O)[C@]12Cc1ccc(NC(=O)Cn3c(=O)n(-c4cnsc4)c4ccccc43)cc1C2
V: CN1C(=O)NC(=O)[C@]12Cc1ccc(NC(=O)Cn3c(=O)n(-c4cc(F)cc(F)c4)c4ccccc43)cc1C2
Request: Reorder: IC50, max to min. Your answer should be the labels, listed in the requested order.
Result: III, II, V, I, IV

A: CN1C(=O)NC(=O)[C@]12Cc1ccc(NC(=O)Cn3c(=O)n(C4CCOC4)c4ccccc43)cc1C2 (some centres not stated)
B: O=C(Cn1c(=O)n(-c2ccccc2)c2ccccc21)Nc1ccc2c(c1)CC1(C2)NC(=O)NC1=O (configuration not stated)
Request: Compare the recorded IC50 of A and B ; state which is larger. Choose, then provide that item's label.
Result: B
(B: 430 nM, A: 61 nM)

A: CN1C(=O)NC(=O)[C@]12Cc1ccc(NC(=O)Cn3c(=O)n(-c4nccc(C(F)(F)F)n4)c4ccccc43)cc1C2
B: Cn1c(=O)n(CC(=O)Nc2ccc3c(c2)CC2(C3)NC(=O)NC2=O)c2ccccc21 (configuration not stated)
Request: Pick one: A or B . Which one has the lower reported IC50? Choose, then provide that item's label.
Result: A

P: CN1C(=O)NC(=O)[C@]12Cc1ccc(NC(=O)Cn3c(=O)n(-c4cncnc4)c4ccccc43)cc1C2
Q: CN1C(=O)NC(=O)[C@]12Cc1ccc(NC(=O)Cn3c(=O)n(-c4ncccn4)c4ccccc43)cc1C2
Request: Pick one: P or Q . Which one has the lower reported IC50? Choose, then provide that item's label.
Result: P
(P: 50 nM, Q: 110 nM)
